- ASSAY_SYSTEM: Gh-TDH wild-type (Grimontia hollisae, UniProt A0A377HK12 25-189)
- ASSAY_PROTOCOL: BLI; 50 mM EDTA
- EXPERIMENTAL_SETUP: protein: recombinant; chain copies: 4; label: 5'-biotin
OBSERVATION_TYPE: Kd

> print(dat)
                              binder    result
1  TTTTTTTTTTTT (ssDNA) [poly(dT12)]  ~3.08 µM

Here is another binder to look at.
Input CCCCCCCCCCCC (ssDNA) [poly(dC12)] , output reported Kd.
~3.08 µM
